These entries and their values trace back to the Immune Epitope Database (IEDB).

# TARGET OF ASSAY: HLA-B*58:01
# EXPERIMENTAL PROTOCOL: IEDB peptide-MHC binding, purified MHC/competitive/fluorescence; bounds were set here for any values at or beyond the usual limits of such assays
# EXPERIMENTAL CONDITIONS: source organism: Homo sapiens
pIC50: −log10 of the molar value.
READOUT NAME: pIC50

Asked: Query (sequence): YFYYNAFHWAI ; field requested: pIC50
Given back: ≤ 4.70

----------
# TARGET OF ASSAY: HLA-A*29:02
# EXPERIMENTAL PROTOCOL: IEDB peptide-MHC binding, purified MHC/competitive/radioactivity; filed as Kd, often an IC50 or EC50 that approximates it; bounds were set here for any values at or beyond the usual limits of such assays
# EXPERIMENTAL CONDITIONS: source organism: Mammarenavirus guanaritoense
pKd: −log10 of the molar value.
READOUT NAME: pKd

Asked: Query (sequence): VLCSSSPTI ; field requested: pKd
Given back: ≤ 4.51

Asked: Now this one: LKILVLSIL
Given back: 4.82

Asked: Now this one: ISEPTIHLV
Given back: ≤ 4.10
